Where do the numbers come from? From patent US20110177071A1.

Biological target: T1, full-length human CD86 on HEK293 cells (human, UniProt P42081 24-329)
T1 sequence: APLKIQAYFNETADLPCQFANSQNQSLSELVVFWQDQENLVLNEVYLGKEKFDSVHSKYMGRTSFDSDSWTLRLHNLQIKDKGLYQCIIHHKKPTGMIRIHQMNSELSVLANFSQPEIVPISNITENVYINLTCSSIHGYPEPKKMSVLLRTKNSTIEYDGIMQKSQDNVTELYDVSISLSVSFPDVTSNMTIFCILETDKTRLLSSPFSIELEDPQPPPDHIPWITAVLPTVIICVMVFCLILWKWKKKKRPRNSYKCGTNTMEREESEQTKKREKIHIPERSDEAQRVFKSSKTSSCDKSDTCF
Assay: cell-based or functional assay
MEASURED ENDPOINT: Mean IC50 (nM), CD4+ T cell proliferation
Answer format reminder: number followed by unit.

BINDER	OBSERVED MEASUREMENT
D3-6-IgG2 (Fc fusion, also called D3-06-IgG2) MHVAQPAVVLASSRGIASFVCEYESPGKANEIRVTVLRQAGSQVTEVCAMTYMMGDELTFLDDPSCTGTFSGNQVNLTIQGLRAADTGLYICKVELMYPPPYYLGFGNGTQIYVIDPEPCPDSDERKCCVECPPCPAPPVAGPSVFLFPPKPKDTLMISRTPEVTCVVVDVSHEDPEVQFNWYVDGVEVHNAKTKPREEQFNSTFRVVSVLTVVHQDWLNGKEYKCKVSNKGLPAPIEKTISKTKGQPREPQVYTLPPSREEMTKNQVSLTCLVKGFYPSDIAVEWESNGQPENNYKTTPPMLDSDGSFFLYSKLTVDKSRWQQGNVFSCSVMHEALHNHYTQKSLSLSPG	0.05 nM
D3-17-IgG2 (Fc fusion) MHVAQPAVVLASSRGIASFVCEYESPGKANEIRVTVLRQADSQVTEVCAMTYMKGDELTFLDDPSCTGTFSGNQVNLTIQGLRAMDTGLYICKVELMYPPPYYLGIGNGTQIYVIDPEPCPDSDERKCCVECPPCPAPPVAGPSVFLFPPKPKDTLMISRTPEVTCVVVDVSHEDPEVQFNWYVDGVEVHNAKTKPREEQFNSTFRVVSVLTVVHQDWLNGKEYKCKVSNKGLPAPIEKTISKTKGQPREPQVYTLPPSREEMTKNQVSLTCLVKGFYPSDIAVEWESNGQPENNYKTTPPMLDSDGSFFLYSKLTVDKSRWQQGNVFSCSVMHEALHNHYTQKSLSLSPG	0.03 nM

Shift focus to the following entry.
*Q* Write down Mean IC50 (nM), CD4+ T cell proliferation measured for item D3-70-IgG2 (Fc fusion) MHVAQPAVVLASSRGIASFVCEYESPGKANEVRVTVLRQADSQVTEVCAMTYMKGNELTFLDDPSCTGTFSGNQVNLTIQGLRAMDTGLYICKVELMYPPPYYEGIGNGTQIYVIDPEPCPDSDERKCCVECPPCPAPPVAGPSVFLFPPKPKDTLMISRTPEVTCVVVDVSHEDPEVQFNWYVDGVEVHNAKTKPREEQFNSTFRVVSVLTVVHQDWLNGKEYKCKVSNKGLPAPIEKTISKTKGQPREPQVYTLPPSREEMTKNQVSLTCLVKGFYPSDIAVEWESNGQPENNYKTTPPMLDSDGSFFLYSKLTVDKSRWQQGNVFSCSVMHEALHNHYTQKSLSLSPG
*A* 0.05 nM
